System: Agaricus bisporus crude tyrosinase (Sigma)
Assay: Substrate specificity by oxygen consumption measurements, commercial Agaricus tyrosinase
Type: biochemical
Conditions: di- and tri-phenolic compounds, in relation to L-Dopa; 2.5 mM substrate, pH 7.0, 50 μg mushroom tyrosinase
READOUT: Agaricus tyrosinase Relative oxygen consumption (%)

COMPOUND	OBSERVED RESULT
Oc1cc(O)c2c(c1)O[C@H](c1ccc(O)c(O)c1)[C@@H](O)C2 [(+)-Catechin hydrate]	282
Oc1cc(O)c2c(c1)O[C@H](c1ccc(O)c(O)c1)[C@H](O)C2 [(−)-Epicatechin]	286
Oc1ccccc1O	328

(a) Oc1cccc(O)c1O
(b) N[C@@H](Cc1ccc(O)c(O)c1)C(=O)O [L-Dopa, L-3,4 dihydroxyphenylalanine]
Query: Pick one: a or b . Which has the bigger Agaricus tyrosinase Relative oxygen consumption (%) number? The response must carry the label of the picked entry.
Reply: a
(a: 248%, b: 100%)

###

System: TYR2
Assay: Substrate specificity by oxygen consumption measurements, purified TYR2
Type: biochemical, Trichoderma reesei
Details: di- and tri-phenolic compounds, in relation to L-Dopa; 2.5 mM substrate, pH 7.0, 24 μg TYR2
Each record here notes measured TYR2 Relative oxygen consumption (%).
Unit % implied. Number only.

Take a look at these entries with their results.
COMPOUND	UNIT	TYR2 Relative oxygen consumption (%)
N[C@@H](Cc1ccc(O)c(O)c1)C(=O)O [L-Dopa, L-3,4 dihydroxyphenylalanine]	%	100
Oc1ccccc1O [Pyrocatechol]	%	88
Oc1cc(O)c2c(c1)O[C@H](c1ccc(O)c(O)c1)[C@@H](O)C2 [(+)-Catechin hydrate]	%	220
Oc1cc(O)c2c(c1)O[C@H](c1ccc(O)c(O)c1)[C@H](O)C2 [(−)-Epicatechin]	%	106

Now for another entry.
Query: Hello, I am looking for reported TYR2 Relative oxygen consumption (%) with TYR2 for Oc1cccc(O)c1O [Pyrogallol] . Could you help?
Reply: 55

###

System: Agaricus bisporus crude tyrosinase (Sigma)
Test: Substrate specificity by oxygen consumption measurements, commercial Agaricus tyrosinase
Assay type: biochemical
Settings: mono-phenols, in relation to L-tyrosine; 2.5 mM substrate, pH 7.0, 50 μg mushroom tyrosinase
READOUT: Agaricus tyr Relative oxygen consumption (%)

Take a look at these entries with their results.
COMPOUND	OBSERVED RESULT
Oc1ccc(S)cc1	0
O=C(O)C=Cc1ccc(O)cc1	0

(a) Nc1c(O)cccc1C(=O)O [3-Hydroxyanthranilic acid]
(b) N[C@@H](Cc1ccc(O)cc1)C(=O)O
Query: Pick one: a or b . Which has the bigger Agaricus tyr Relative oxygen consumption (%) number? The response must carry the label of the picked entry.
Reply: b
